The measurements presented in this section are drawn from patent US20050049245A1.

- TARGET: HCMV polymerase (Human cytomegalovirus, UniProt P08546)
- Construct: made in house; host or cells: recombinant baculovirus-infected SF-9 cells
- Sequence (P08546 whole entry): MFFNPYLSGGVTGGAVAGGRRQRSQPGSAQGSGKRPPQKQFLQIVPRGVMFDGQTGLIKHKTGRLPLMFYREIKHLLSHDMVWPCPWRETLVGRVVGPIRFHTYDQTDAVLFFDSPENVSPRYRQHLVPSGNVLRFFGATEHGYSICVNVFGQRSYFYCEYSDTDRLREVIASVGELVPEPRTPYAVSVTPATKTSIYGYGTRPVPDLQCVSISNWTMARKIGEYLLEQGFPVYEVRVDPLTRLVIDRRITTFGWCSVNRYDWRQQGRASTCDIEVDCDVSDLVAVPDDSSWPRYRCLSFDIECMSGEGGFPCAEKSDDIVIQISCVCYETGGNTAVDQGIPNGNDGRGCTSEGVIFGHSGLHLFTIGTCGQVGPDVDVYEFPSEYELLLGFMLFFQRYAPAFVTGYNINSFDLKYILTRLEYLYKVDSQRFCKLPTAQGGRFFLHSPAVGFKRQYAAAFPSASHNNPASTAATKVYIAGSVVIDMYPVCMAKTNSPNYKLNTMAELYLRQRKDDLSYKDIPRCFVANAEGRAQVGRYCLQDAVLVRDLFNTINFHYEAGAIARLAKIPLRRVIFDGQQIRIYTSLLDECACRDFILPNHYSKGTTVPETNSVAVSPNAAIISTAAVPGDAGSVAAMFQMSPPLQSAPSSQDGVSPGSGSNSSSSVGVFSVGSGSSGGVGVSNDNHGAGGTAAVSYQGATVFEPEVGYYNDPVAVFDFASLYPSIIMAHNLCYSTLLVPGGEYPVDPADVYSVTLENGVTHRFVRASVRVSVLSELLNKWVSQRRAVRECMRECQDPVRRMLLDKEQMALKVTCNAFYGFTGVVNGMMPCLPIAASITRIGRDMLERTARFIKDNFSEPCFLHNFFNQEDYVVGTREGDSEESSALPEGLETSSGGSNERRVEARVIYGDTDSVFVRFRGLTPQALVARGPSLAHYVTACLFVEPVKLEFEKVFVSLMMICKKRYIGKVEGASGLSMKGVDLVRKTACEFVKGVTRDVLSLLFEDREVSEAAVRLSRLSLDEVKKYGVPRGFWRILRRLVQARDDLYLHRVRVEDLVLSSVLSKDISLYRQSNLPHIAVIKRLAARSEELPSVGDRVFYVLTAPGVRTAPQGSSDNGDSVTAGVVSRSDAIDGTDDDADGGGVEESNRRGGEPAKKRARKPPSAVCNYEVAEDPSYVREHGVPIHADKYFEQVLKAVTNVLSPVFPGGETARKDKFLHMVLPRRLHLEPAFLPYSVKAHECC
- EXPERIMENTAL_PROTOCOL: HCMV polymerase scintillation proximity assay (SPA)
- Assay type: biochemical
ASSAY_READOUT: IC50 (nM)
Use nM as the unit, but write only the number.

// query For CN(Cc1cc2c(=O)c(C(=O)NCc3ccc(Cl)cc3)cn(C)c2s1)CC(O)c1nccs1 (racemic) [Example 16] , what is its reported IC50?
// result 200

// query Same for CN(Cc1cc2c(=O)c(C(=O)NCc3ccc(Cl)cc3)cn(CCCO)c2s1)C[C@@H](O)c1ccco1 [Example 27]
// result 360

// query // repeat for CN(Cc1cc2c(=O)c(C(=O)NCc3ccc(Cl)cc3)cn(CCCO)c2s1)CC(O)c1cc2ccccc2o1 (racemic) [Example 28] and report
// result 300

---

Can you tell me melting point for the items I'm about to list?

// query Param item = CN(Cc1cc2c(=O)c(C(=O)NCc3ccc(Cl)cc3)cn(C)c2s1)CC(O)c1cn(C)cn1 (racemic) ; retrieve measured melting point.
// result 124 to 130 °C

// query Quick one: CN(Cc1cc2c(=O)c(C(=O)NCc3ccc(Cl)cc3)cn(C)c2s1)CC(O)c1c[nH]c2ccccc12 (racemic)
// result 120 to 123 °C

// query Next: CN(Cc1cc2c(=O)c(C(=O)NCc3ccc(Cl)cc3)cn(C)c2s1)CC(O)c1csc2ccccc12 (racemic)
// result 213 to 219 °C (dec.)

// query Also check CN(Cc1cc2c(=O)c(C(=O)NCc3ccc(Cl)cc3)cn(C)c2s1)CC(O)c1cccn1C (racemic)
// result 140 to 145 °C

// query Please do the same for CN(Cc1cc2c(=O)c(C(=O)NCc3ccc(Cl)cc3)cn(C)c2s1)CC(O)c1cc2ccccc2n1C (racemic) as well.
// result 128 to 132 °C (dec.)

// query Please give the result for `CCn1cc(C(=O)NCc2ccc(Cl)cc2)c(=O)c2cc(CN(C)C[C@@H](O)c3ccco3)sc21` too.
// result 123 to 127 °C

// query Next: COCCn1cc(C(=O)NCc2ccc(Cl)cc2)c(=O)c2cc(CN(C)CC(O)c3cc4ccccc4o3)sc21 (racemic)
// result 133 to 140 °C

// query Do the same for Cc1cc(C(O)CN(C)Cc2cc3c(=O)c(C(=O)NCc4ccc(Cl)cc4)cn(C)c3s2)oc1C (racemic) please
// result 166 to 167 °C

// query Also CN(Cc1cc2c(=O)c(C(=O)NCc3ccc(Cl)cc3)cn(C)c2s1)CC(O)c1ccc(-c2ccccc2)o1 (racemic) , if possible.
// result 177 to 178 °C

// query Please answer likewise for CN(Cc1cc2c(=O)c(C(=O)NCc3ccc(Cl)cc3)cn(C)c2s1)CC(O)c1ncc[nH]1 (racemic)
// result 177.9 to 179.5 °C

// query Proceed to CN(Cc1cc2c(=O)c(C(=O)NCc3ccc(Cl)cc3)cn(C)c2s1)CC(O)c1c[nH]cn1 (racemic)
// result 164 to 169 °C

// query Let us now turn to Cc1ccc(C(O)CN(C)Cc2cc3c(=O)c(C(=O)NCc4ccc(Cl)cc4)cn(C)c3s2)o1 (racemic)
// result 137 to 140 °C

// query Now the compound CN(Cc1cc2c(=O)c(C(=O)NCc3ccc(Cl)cc3)cn(C)c2s1)CC(O)c1ccn[nH]1 (racemic)
// result 177.5 to 178.6 °C

// query CN(Cc1cc2c(=O)c(C(=O)NCc3ccc(Cl)cc3)cn(C)c2s1)CC(O)c1ccc(C#N)s1 (racemic) ?
// result 155 to 160 °C (dec.)
